This collection of values is drawn from ChEMBL document CHEMBL4257549.

Organism: Homo sapiens
Assay: Inhibition of human topoisomerase 2-mediated pBR322 DNA relaxation at 20 uM after 30 mins by agarose gel electrophoresis
Activity calls are given as the source filed them. The rule behind the calls is not given here.
The reply should name one outcome from active, inactive

Look over these answered cases.
# smiles, class-label
measured = [
    ("O=C(O)CN1C(=O)/C(=C/c2nc3ccccc3n2CC(=O)c2ccc(Cl)cc2)SC1=S", "active"),
    ("Cc1ccc(Cn2c(/C=C3\\SC(=S)N(CC(=O)O)C3=O)nc3cc(Cl)ccc32)cc1", "active"),
    ("COc1ccc(C(=O)Cn2c(/C=C3\\SC(=S)N(CC(=O)O)C3=O)nc3ccccc32)cc1", "inactive"),
    ("O=C(O)CN1C(=O)/C(=C/c2nc3ccc(F)cc3n2Cc2ccccc2F)SC1=S", "active"),
    ("O=C(O)CN1C(=O)/C(=C/c2nc3ccccc3n2Cc2ccc(F)cc2F)SC1=S", "inactive"),
]

Lookup: Per the records of this test, what outcome belongs to `COc1ccc2nc(/C=C3\SC(=S)N(CC(=O)O)C3=O)n(Cc3ccccc3F)c2c1` ?
Found: active

Lookup: Per the records of this test, what outcome belongs to `COc1ccc2nc(/C=C3\SC(=S)N(CC(=O)O)C3=O)n(Cc3ccc(C)cc3)c2c1` ?
Found: active

Lookup: Per the records of this test, what outcome belongs to `Cc1ccc(Cn2c(/C=C3\SC(=S)N(CC(=O)O)C3=O)nc3ccc(Cl)cc32)cc1` ?
Found: active

Lookup: Per the records of this test, what outcome belongs to `O=C(O)CN1C(=O)/C(=C/c2nc3ccccc3n2Cc2ccccc2F)SC1=S` ?
Found: active
